Measured values drawn from ChEMBL document CHEMBL4428064 for this set.

protocol_notes: Selectivity ratio of IC50 for rat ins-1 cells to IC50 for bloodstream form of Trypanosoma brucei 221
Type: toxicity
condition_info: read-out: Ratio IC50
measure: selectivity ratio

Ask | Indicate its recorded selectivity ratio; the compound in question is Cc1cc(Nc2nc(N[C@@H](C)c3ccc(F)cc3)c(C#N)cc2F)n[nH]1
Reply | 83 to 84

----------
protocol_notes: Selectivity ratio of IC50 for mouse vSMC to IC50 for bloodstream form of Trypanosoma brucei 221
Assay type: toxicity
condition_info: read-out: Ratio IC50
measure: selectivity ratio

Ask | Indicate its recorded selectivity ratio; the molecule in question is Cc1cc(Nc2nc(N[C@@H](C)c3ccc(F)cc3)c(C#N)cc2F)n[nH]1
Reply | 208 to 210

----------
Consider the following compounds; for each one, report its inhibition.
Tested on: Trypanosoma brucei
protocol_notes: Inhibition of GST-tagged Trypanosoma brucei ERK8 autophosphorylation expressed in Escherichia coli using myelin basic protein as substrate after 30 mins in presence of 32P-gamma-ATP by SDS-PAGE based autoradiography

Ask | Indicate its recorded inhibition; the compound in question is Cc1ncc(-c2ccnc(Nc3ccc(S(C)(=O)=O)cc3)n2)n1C(C)C
Reply | < 20%

Ask | Indicate its recorded inhibition; the compound in question is Cc1cc(Nc2nc(N[C@@H](C)c3ccc(F)cc3)c(C#N)cc2F)n[nH]1
Reply | < 20%

Ask | Indicate its recorded inhibition; the compound in question is CC(=O)NCC(=O)N1[C@@H]2CC[C@H]1c1ccc(Nc3ncc(C(F)(F)F)c(NC4CCC4)n3)cc12
Reply | < 20%

Ask | Indicate its recorded inhibition; the compound in question is CNC(=O)c1nn(C)c2c1C(C)(C)Cc1cnc(Nc3ccc(N4CCN(C)CC4)cc3)nc1-2
Reply | < 20%
